System: HCT-15 colon
Experiment Description: NCI tumour cell line growth inhibition, 48 h

Compound | Experimental Target | TGI
C[Si](C)(OCCS(=O)(=O)O)OC(=C1S(=O)(=O)OCCOS1(=O)=O)c1cccc2ccccc12 | HCT-15 colon | > 100 µM
N#CCC(=O)N/N=C(\C(=O)Nc1ccc(Cl)c(Cl)c1)C1CN(c2ccccc2)N=C1N (stereo not given) | HCT-15 colon | > 100 µM
Cn1/c(=N\N=C(\CNCCO)[C@@H](O)[C@@H]2OC(c3ccccc3)OC[C@H]2O)sc2ccccc21 (stereo not given in full) | HCT-15 colon | 54.6 µM
O=C1OC(c2ccccc2)(c2cc(Br)c(O)c(Br)c2)c2ccccc21 (stereo not given) | HCT-15 colon | 76.2 µM
c1ccc(CN=C(NCc2ccccc2)NCc2ccccc2)cc1 | HCT-15 colon | > 100 µM
O=C1OC2CC=CC1C2 (stereo not given) | HCT-15 colon | > 100 µM
COC(=O)c1c2c(cc3c1CC1(Cc4cc5c(cc4C1=O)CCC5)C3)CCC2 (stereo not given) | HCT-15 colon | > 100 µM
CCOC(=O)[C@@H](C)C[C@H](Cc1ccccc1)NC(=O)c1csc([C@@H](C[C@H](C(C)C)N(C)C(=O)[C@H](CC)NC(=O)[C@H]2CCCCN2C)OC(C)=O)n1 | HCT-15 colon | > 16.7 µM
CC(=O)OCC(OC(C)=O)C(OC(C)=O)C(OC(C)=O)C(C=NN(C(C)=O)S(=O)(=O)c1ccc(/C=C2\NC(=O)NC2=O)cc1)OC(C)=O (stereo not given) | HCT-15 colon | > 100 µM
COc1ccc(NC(=S)N/N=C(\C)c2nc3ncccc3[nH]2)cc1 | HCT-15 colon | > 100 µM
Cc1ccc(-c2nc(N3CCCNCC3)c3oc(-c4ccccc4)nc3n2)cc1 | HCT-15 colon | 2.77 µM
O=c1oc(=O)c2oc3ccccc3oc1=2 | HCT-15 colon | > 100 µM
C[n+]1ccc(-c2c3nc(c(-c4cc[n+](C)cc4)c4ccc([n-]4)c(-c4cc[n+](C)cc4)c4nc(c(-c5cc[n+](C)cc5)c5ccc2[n-]5)C=C4)C=C3)cc1.[I-].[Zn+2] | HCT-15 colon | > 100 µM
C/C(=C(\c1ccc(OCCN2CCCCCC2)cc1)c1ccc(OC(=O)Cc2ccccc2)cc1)c1ccc(Cl)cc1 | HCT-15 colon | 4.26 µM
CCOC(=O)/C(=C(/C)NCC(C)C)c1cc(O)c(O)c2c(C)cc(=O)[nH]c12 | HCT-15 colon | > 100 µM
CC(=O)OCCOc1cc2c([nH]c3ccccc32)c(C)c2cccc1-2 | HCT-15 colon | 10.3 µM
CCCCN(CCCC)CCCn1c(=O)c2c3ccccc3n(C)c2n2nnc(-c3ccccc3)c12 | HCT-15 colon | > 100 µM
NC1=NCCN1CC(=O)O | HCT-15 colon | > 10000 µM
CNc1nnc(CNc2ccc(-c3nnc(NC)n3N)cc2)n1N | HCT-15 colon | > 100 µM
NCCN1C(=O)C2C3c4ccccc4C(c4ccccc43)C2C1=O (stereo not given) | HCT-15 colon | > 100 µM
CCS(=O)(=O)Nc1cccc(Nc2c3cccc(C)c3nc3c(C)cccc23)c1OC | HCT-15 colon | > 100 µM
O[C@@H]1C[C@H]2N3CC[C@@]2(c2cc4c(cc2C3)OCO4)[C@H]2O[C@@H]12 | HCT-15 colon | > 100 µM
CCOC(=O)/C(C#N)=C1/C(O)=C(C(=O)OC)C(C(=O)OC)=C1C(=O)OC | HCT-15 colon | > 100 µM
COc1ccc2[nH]cc(CCNC(=O)[C@](O)(Cc3cn(C)c4ccccc34)[C@@]3(O)OCC(O)C3O)c2c1 (stereo not given in full) | HCT-15 colon | > 100 µM
CC(=O)N1CC(=O)N2C(=O)/C(=C/c3ccc(Cl)cc3)N=C12 | HCT-15 colon | > 100 µM
CCOP(=O)(OCC)C(C(=O)OC)C(=O)C(=O)Nc1c(C)cc(Br)cc1C (stereo not given) | HCT-15 colon | > 100 µM
CC[C@]12C=CCN3CC[C@@]4(c5cc(Br)c(OC)cc5N(C)[C@H]4[C@@](O)(C(=O)N[C@@H](Cc4ccc(O)cc4)C(=O)OC)[C@@H]1O)[C@@H]32 | HCT-15 colon | 76.3 µM
COc1cc(OC)c(NC(=O)c2cc3ccccc3cc2O)cc1Cl | HCT-15 colon | 19.4 µM
COc1ccc(OC)c(-c2cc(=O)c3c(OC)c(OC)c(OC)c(OC)c3o2)c1 | HCT-15 colon | 77.5 µM
O=c1[nH]c(=O)n(C2CC(O)C(CO)O2)cc1OCC1CCCCC1 (stereo not given) | HCT-15 colon | > 100 µM
O=C1C2CN(Cc3ccccc3)CC1CN(CC1CC1)C2 | HCT-15 colon | > 100 µM
NS(=O)(=O)c1ccc(Nc2c3ccccc3nc3c(C(=O)NCCO)cccc23)cc1 | HCT-15 colon | 0.333 µM
COC(=O)/C=C/c1cn(C(C)=O)c2ccc(Br)cc12 | HCT-15 colon | > 100 µM
Nc1ncnc2c1ncn2[C@H]1CC[C@@H](NO)C1 | HCT-15 colon | > 100 µM
O=C(NCC(O)CNC(=O)C(F)(F)F)C(F)(F)F | HCT-15 colon | > 100 µM
